Provenance of the data: BigSolDB 2.1

# condition_label: in methyl acetate, 313.15 K
measured_endpoint: solubility (mole fraction)
Numbers only.

[in] Entry COC(=O)[C@@H](N)CC(C)C.Cl : reported solubility (mole fraction) = ?
[out] 0.0019

###

# condition_label: in ethyl acetate, 303.15 K
measured_endpoint: solubility (mole fraction)

[in] Entry COC(=O)[C@@H](N)CC(C)C.Cl : reported solubility (mole fraction) = ?
[out] 0.000421

###

# condition_label: in acetone, 313.15 K
measured_endpoint: solubility (mole fraction)
One number for each entry.

[in] Entry COC(=O)[C@@H](N)CC(C)C.Cl : reported solubility (mole fraction) = ?
[out] 0.01

###

# condition_label: in n-butanol, 288.15 K
measured_endpoint: solubility (mole fraction)
One number for each entry.

[in] Entry COC(=O)[C@@H](N)CC(C)C.Cl : reported solubility (mole fraction) = ?
[out] 0.0916
